experimentalSystem: T1, PC2, P16519
T1 chain: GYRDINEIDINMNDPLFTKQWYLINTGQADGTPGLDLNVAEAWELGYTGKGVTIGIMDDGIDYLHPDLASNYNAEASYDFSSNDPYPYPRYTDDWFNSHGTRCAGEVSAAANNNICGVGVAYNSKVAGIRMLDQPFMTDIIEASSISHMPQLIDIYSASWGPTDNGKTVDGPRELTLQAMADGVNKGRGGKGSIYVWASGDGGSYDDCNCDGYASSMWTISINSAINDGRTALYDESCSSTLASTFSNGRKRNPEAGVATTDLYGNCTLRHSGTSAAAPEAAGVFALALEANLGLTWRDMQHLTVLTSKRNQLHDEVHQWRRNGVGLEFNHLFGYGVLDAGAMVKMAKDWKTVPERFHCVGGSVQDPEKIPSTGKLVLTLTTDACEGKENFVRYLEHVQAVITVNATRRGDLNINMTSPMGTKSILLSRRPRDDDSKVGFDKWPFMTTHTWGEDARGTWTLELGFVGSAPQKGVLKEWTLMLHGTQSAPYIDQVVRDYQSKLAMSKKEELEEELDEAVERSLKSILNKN
assaySetup: modification not given
No end group written: not given here.
valueKind: pKi
In simple prose, pKi is minus the logarithm base ten of a concentration in moles per litre.

Input: Look up pKi: LLRVKR-NH2 [LLRVKR-NH2]
Output: 5.64
